# Test details: activity coefficient (dimensionless); of the first substance listed, at infinite dilution; xn = mol fraction of the nth substance listed
# Test context: 358.15 K; 101 kPa; Liquid; Chromatography; x1 = 0
Fulfilled means recorded activity coefficient is 8 or above; Not fulfilled means it is below 8.

Solved cases below.
Molecule	Category
CCCC(C)=O [pentan-2-one] + CCCCn1cc[n+](C)c1.[Cl-]	Not fulfilled
C=COC(C)=O [vinyl acetate] + CCCCn1cc[n+](C)c1.[Cl-]	Not fulfilled
Cc1ccccc1 [toluene] + CCCCn1cc[n+](C)c1.COP(=O)([O-])OC	Not fulfilled
CCc1ccccc1 [ethylbenzene] + CCCCn1cc[n+](C)c1.CS(=O)(=O)[O-]	Fulfilled
CCCCCCCCCC [decane] + CCCCn1cc[n+](C)c1.COP(=O)([O-])OC	Fulfilled

Input line: # check: activity coefficient of CCCCCCCC [octane] + CCCCn1cc[n+](C)c1.COP(=O)([O-])OC is greater than or equal to 8
Output line: Fulfilled

Input line: Does the molecule CC(C)OC(C)C [diisopropyl ether] + CCCCn1cc[n+](C)c1.COP(=O)([O-])OC have recorded activity coefficient that is 8 or more?
Output line: Fulfilled

Input line: Determine whether measured activity coefficient meets or exceeds 8 for CCCCCCCCCC [decane] + CCCCn1cc[n+](C)c1.CS(=O)(=O)[O-]
Output line: Fulfilled

Input line: Threshold query (activity coefficient >= 8) on COC(C)=O [methyl ethanoate] + CCCCn1cc[n+](C)c1.COP(=O)([O-])OC
Output line: Not fulfilled

----------
# Test details: activity coefficient (dimensionless); of the first substance listed, at infinite dilution; xn = mol fraction of the nth substance listed
# Test context: 418.15 K; 101 kPa; Liquid; Chromatography; x1 = 0
Consider the cut-off 1. If the recorded activity coefficient is strictly smaller, the label is Criterion met; if not, the label is Criterion not met.

Compound	Category
CCO [ethanol] + CCCCn1cc[n+](C)c1.[Cl-]	Criterion met
O [water] + CCCCn1cc[n+](C)c1.CS(=O)(=O)[O-]	Criterion met
CCC(C)O (stereo not given) [butan-2-ol] + CCCCn1cc[n+](C)c1.COP(=O)([O-])OC	Criterion met

Input line: Strictly below 1 in activity coefficient? CC(C)(C)O [2-methylpropan-2-ol] + CCCCn1cc[n+](C)c1.CS(=O)(=O)[O-]
Output line: Criterion not met

Input line: # TODO verify activity coefficient < 1 strictly for this compound: CCC(C)O (stereo not given) [butan-2-ol] + CCCCn1cc[n+](C)c1.CS(=O)(=O)[O-]
Output line: Criterion not met

----------
# Test details: activity coefficient (dimensionless); of the first substance listed, at infinite dilution; xn = mol fraction of the nth substance listed
# Test context: 388.15 K; 101 kPa; Liquid; Chromatography; x1 = 0
Quantity name: activity coefficient

Molecule	activity coefficient
Cc1ccc(C)cc1 [1,4-dimethylbenzene] + CCCCn1cc[n+](C)c1.CS(=O)(=O)[O-]	9.71
CCCCCCCCCC [decane] + CCCCn1cc[n+](C)c1.COP(=O)([O-])OC	81.6

Input line: Output measured activity coefficient for this item: C#CCCCCC [1-heptyne] + CCCCn1cc[n+](C)c1.[Cl-]
Output line: 13.3

Input line: Supply reported activity coefficient belonging to this molecule: COC(C)(C)C [2-methoxy-2-methylpropane] + CCCCn1cc[n+](C)c1.COP(=O)([O-])OC
Output line: 7.66

Input line: Using known records, supply activity coefficient for C=COC(C)=O [vinyl acetate] + CCCCn1cc[n+](C)c1.COP(=O)([O-])OC
Output line: 3.13

Input line: Query activity coefficient for CCOC(C)=O [ethyl acetate] + CCCCn1cc[n+](C)c1.CS(=O)(=O)[O-]
Output line: 5.28

Input line: Identify activity coefficient associated with the molecule C1CCCCCCC1 [cyclooctane] + CCCCn1cc[n+](C)c1.COP(=O)([O-])OC
Output line: 17.3

Input line: Quick one: give measured activity coefficient for Cc1ccccc1C [1,2-dimethylbenzene] + CCCCn1cc[n+](C)c1.CS(=O)(=O)[O-]
Output line: 8.21

Input line: Retrieve activity coefficient measured for CC(C)=O [acetone] + CCCCn1cc[n+](C)c1.CS(=O)(=O)[O-] and print it.
Output line: 2.3

Input line: Please list activity coefficient recorded for the molecule C#CCCCC [1-hexyne] + CCCCn1cc[n+](C)c1.[Cl-]
Output line: 8.61
